Origin of the recorded values: patent US9873883B2

Target: Brassica napus (canola) EPSP synthase DGT-3 (GENBANK P17688) variant DGT-3 v6 (G→A) (Brassica napus, UniProt P17688, G173A)
Construct: made in house; host or cells: E. coli Rosetta2 (DE3)
Sequence (P17688 73-516 G173A): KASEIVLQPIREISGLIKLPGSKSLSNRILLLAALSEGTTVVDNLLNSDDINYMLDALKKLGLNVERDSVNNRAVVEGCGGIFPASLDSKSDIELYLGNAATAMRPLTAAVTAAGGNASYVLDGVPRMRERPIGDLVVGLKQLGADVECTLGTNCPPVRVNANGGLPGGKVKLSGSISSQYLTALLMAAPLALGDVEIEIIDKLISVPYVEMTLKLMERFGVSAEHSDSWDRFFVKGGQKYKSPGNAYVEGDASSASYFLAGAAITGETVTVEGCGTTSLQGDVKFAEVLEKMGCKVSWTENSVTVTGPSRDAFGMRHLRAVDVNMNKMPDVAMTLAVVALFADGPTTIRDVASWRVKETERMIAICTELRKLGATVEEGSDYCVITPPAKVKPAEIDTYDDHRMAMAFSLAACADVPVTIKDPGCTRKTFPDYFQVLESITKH
Test: In vitro kinetic assay (inorganic phosphate production, malachite green)
Format: biochemical
Conditions: IC50 (glyphosate), at 60 μM PEP
MEASURED_PARAMETER: IC50 (mM)
Dear colleague, please return just the value in mM, with no unit written.

The compound listed as O=C(O)CNCP(=O)(O)O [glyphosate, N-(phosphonomethyl)glycine] has a reported IC50 of 8.7
